experiment: amyloid nucleation score (Sup35N fusion, yeast selection) (log enrichment); library NNK2; higher = more nucleation; inactive = no reads after selection;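 note: zero at mode of non-aggregating sequences after 7 days selection at 30°C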
Label rule, in plain words: amyloid nucleation score of -0.06 and up is fulfilled, under -0.06 is not fulfilled.

{"RESIDUES": "GVGRWIQCQDSWNTNRPSQP", "CLASS ASSIGNMENT": "fulfilled"}
{"RESIDUES": "KLGIDRGTVCLWLSV", "CLASS ASSIGNMENT": "fulfilled"}
{"RESIDUES": "KSFGCIRKCEDCYIW", "CLASS ASSIGNMENT": "fulfilled"}
{"RESIDUES": "WVYRLMLTMLR", "CLASS ASSIGNMENT": "fulfilled"}
{"RESIDUES": "HGHLHYLMNR", "CLASS ASSIGNMENT": "fulfilled"}
{"RESIDUES": "KFNGPKIVYFISTSMVLLVS", "CLASS ASSIGNMENT": "not fulfilled"}
{"RESIDUES": "SRTAWVDLPDCWQVVKFGSV", "CLASS ASSIGNMENT": "fulfilled"}
{"RESIDUES": "SYGHDWVGKGKVGGIRLM", "CLASS ASSIGNMENT": "not fulfilled"}

====

assay: amyloid nucleation score (Sup35N fusion, yeast selection) (log enrichment); library NNK2; higher = more nucleation; inactive = no reads after selection
Use 1.0 when the recorded amyloid nucleation score is no lower than 0.6; use 0.0 when it is lower.

{"SUBSTANCE": "LWFDLSSTLPQM", "CLASS ASSIGNMENT": 0.0}
{"SUBSTANCE": "CCAQWSNFACSV", "CLASS ASSIGNMENT": 1.0}
{"SUBSTANCE": "TIDWTMSHCMI", "CLASS ASSIGNMENT": 0.0}
{"SUBSTANCE": "CSEYLCGVKVLTCWFGRRYS", "CLASS ASSIGNMENT": 0.0}
{"SUBSTANCE": "FCILSWGLSVRYSRVPLNYK", "CLASS ASSIGNMENT": 1.0}
{"SUBSTANCE": "NGTINALFSDEAGWSSCGYL", "CLASS ASSIGNMENT": 0.0}
{"SUBSTANCE": "MKGNSSGVA", "CLASS ASSIGNMENT": 1.0}
{"SUBSTANCE": "QAISVEVVGYRSNLESFTIW", "CLASS ASSIGNMENT": 1.0}
{"SUBSTANCE": "LVSQLPVDFMVTFDILTVEI", "CLASS ASSIGNMENT": 0.0}
{"SUBSTANCE": "RSLLRFQ", "CLASS ASSIGNMENT": 1.0}
{"SUBSTANCE": "YCHALARLSGFL", "CLASS ASSIGNMENT": 0.0}
{"SUBSTANCE": "SYDVRVAKINSPLGG", "CLASS ASSIGNMENT": 0.0}
{"SUBSTANCE": "RYMKAG", "CLASS ASSIGNMENT": 0.0}
{"SUBSTANCE": "DFSWNGGNFTFVFSKCGL", "CLASS ASSIGNMENT": 1.0}
{"SUBSTANCE": "HVYIGVNLKRENKTHQTSSV", "CLASS ASSIGNMENT": 1.0}
{"SUBSTANCE": "FARGMVRSSTGTM", "CLASS ASSIGNMENT": 0.0}
{"SUBSTANCE": "KCYLVLRG", "CLASS ASSIGNMENT": 1.0}
{"SUBSTANCE": "NLSCNLFVSFWYGW", "CLASS ASSIGNMENT": 1.0}
{"SUBSTANCE": "KVSHAWM", "CLASS ASSIGNMENT": 1.0}
{"SUBSTANCE": "SRGSSMMQIYFL", "CLASS ASSIGNMENT": 1.0}
{"SUBSTANCE": "FSLICIKIHEKGWQGEG", "CLASS ASSIGNMENT": 1.0}
{"SUBSTANCE": "DYRMVYSCCMLGREGWRNTW", "CLASS ASSIGNMENT": 1.0}
{"SUBSTANCE": "IYQVRLYD", "CLASS ASSIGNMENT": 0.0}
{"SUBSTANCE": "IFVGIIKIVCWNNEGVDDLQ", "CLASS ASSIGNMENT": 1.0}
{"SUBSTANCE": "INHDFQTHVL", "CLASS ASSIGNMENT": 0.0}
{"SUBSTANCE": "TLMDLNNHPTYGYLLVPTVD", "CLASS ASSIGNMENT": 0.0}
{"SUBSTANCE": "ASTFYMVGSIG", "CLASS ASSIGNMENT": 1.0}
{"SUBSTANCE": "MSFNQLIMFETRSSTPYRWR", "CLASS ASSIGNMENT": 1.0}
{"SUBSTANCE": "LESMFNVL", "CLASS ASSIGNMENT": 0.0}
{"SUBSTANCE": "TWMGVHVRSYHQHC", "CLASS ASSIGNMENT": 1.0}
{"SUBSTANCE": "HRVYEFIKPLGPGAHTFVFT", "CLASS ASSIGNMENT": 0.0}
{"SUBSTANCE": "KLGLSSIHFSGSMFVRCTFC", "CLASS ASSIGNMENT": 1.0}
{"SUBSTANCE": "TWGPWTLMSVLSCGVYGSHG", "CLASS ASSIGNMENT": 1.0}
{"SUBSTANCE": "ATDVCKKLWFALLVSVLVSS", "CLASS ASSIGNMENT": 1.0}
{"SUBSTANCE": "MKPSSSLTYLE", "CLASS ASSIGNMENT": 0.0}
{"SUBSTANCE": "MMGLGKCR", "CLASS ASSIGNMENT": 1.0}
